Reported kcat values are given for each entry in this list.
Target: Factor X, P00742
Sequence (P00742 whole entry, looked up): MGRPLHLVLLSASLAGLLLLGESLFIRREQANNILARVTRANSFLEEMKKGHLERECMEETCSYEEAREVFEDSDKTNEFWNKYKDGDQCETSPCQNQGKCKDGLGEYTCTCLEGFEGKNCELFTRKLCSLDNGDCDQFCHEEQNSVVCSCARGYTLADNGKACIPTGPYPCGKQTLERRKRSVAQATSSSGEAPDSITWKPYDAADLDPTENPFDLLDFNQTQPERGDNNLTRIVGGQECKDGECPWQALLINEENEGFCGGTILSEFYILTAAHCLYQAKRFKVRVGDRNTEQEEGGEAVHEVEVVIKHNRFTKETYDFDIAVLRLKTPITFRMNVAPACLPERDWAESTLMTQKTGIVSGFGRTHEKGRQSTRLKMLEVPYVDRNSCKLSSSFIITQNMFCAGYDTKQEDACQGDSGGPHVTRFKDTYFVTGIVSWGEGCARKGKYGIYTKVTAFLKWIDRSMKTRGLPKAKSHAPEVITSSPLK
Provide only the numeric value, understood in s⁻¹.

FIXa-Y155F/K247N/N249S/R318Y/R403E (protein) chain 1: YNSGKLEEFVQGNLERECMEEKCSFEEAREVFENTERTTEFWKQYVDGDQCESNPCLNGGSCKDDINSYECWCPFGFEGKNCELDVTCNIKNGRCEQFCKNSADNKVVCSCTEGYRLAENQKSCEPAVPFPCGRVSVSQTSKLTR chain 2: VVGGEDAKPGQFPWQVVLNGKVDAFCGGSIVNEKWIVTAAHCVETGVKITVVAGEHNIEETEHTEQNRSVIRIIPHHNYNAAINKYNHDIALLELDEPLVLNSYVTPICIADKEYTNIFLKFGSGYVSGWGRVFHKGYSALVLQYLRVPLVDRATCLRSTKFTIYNNMFCAGFHEGGRDSCQGDSGGPHVTEVEGTSFLTGIISWGEECAMKGKYGIYTKVSEYVNWIKEKTKLT = 1.7
FIXa-Y155F/K247N/N249S/R318Y/R403E/E410N (protein) chain 1: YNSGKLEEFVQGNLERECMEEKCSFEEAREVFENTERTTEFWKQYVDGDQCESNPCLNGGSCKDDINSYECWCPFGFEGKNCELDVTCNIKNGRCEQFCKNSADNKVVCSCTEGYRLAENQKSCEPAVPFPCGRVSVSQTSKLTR chain 2: VVGGEDAKPGQFPWQVVLNGKVDAFCGGSIVNEKWIVTAAHCVETGVKITVVAGEHNIEETEHTEQNRSVIRIIPHHNYNAAINKYNHDIALLELDEPLVLNSYVTPICIADKEYTNIFLKFGSGYVSGWGRVFHKGYSALVLQYLRVPLVDRATCLRSTKFTIYNNMFCAGFHEGGRDSCQGDSGGPHVTEVEGTSFLTGIISWGEECAMKGKYGIYTKVSEYVNWIKNKTKLT = 1.2
FIXa-Y155F/R318Y/R338E/T343R/R403E (protein) chain 1: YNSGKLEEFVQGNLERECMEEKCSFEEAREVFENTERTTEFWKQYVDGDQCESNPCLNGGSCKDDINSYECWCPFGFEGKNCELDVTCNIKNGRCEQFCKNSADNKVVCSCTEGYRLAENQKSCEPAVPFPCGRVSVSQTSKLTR chain 2: VVGGEDAKPGQFPWQVVLNGKVDAFCGGSIVNEKWIVTAAHCVETGVKITVVAGEHNIEETEHTEQKRNVIRIIPHHNYNAAINKYNHDIALLELDEPLVLNSYVTPICIADKEYTNIFLKFGSGYVSGWGRVFHKGYSALVLQYLRVPLVDRATCLESTKFRIYNNMFCAGFHEGGRDSCQGDSGGPHVTEVEGTSFLTGIISWGEECAMKGKYGIYTKVSEYVNWIKEKTKLT = 8.2
FIXa-R338E/T343R/R403E/E410N (protein) chain 1: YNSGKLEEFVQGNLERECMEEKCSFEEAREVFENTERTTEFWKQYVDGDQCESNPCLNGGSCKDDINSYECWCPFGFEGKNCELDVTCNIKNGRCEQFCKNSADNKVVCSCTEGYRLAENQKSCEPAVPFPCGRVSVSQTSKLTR chain 2: VVGGEDAKPGQFPWQVVLNGKVDAFCGGSIVNEKWIVTAAHCVETGVKITVVAGEHNIEETEHTEQKRNVIRIIPHHNYNAAINKYNHDIALLELDEPLVLNSYVTPICIADKEYTNIFLKFGSGYVSGWGRVFHKGRSALVLQYLRVPLVDRATCLESTKFRIYNNMFCAGFHEGGRDSCQGDSGGPHVTEVEGTSFLTGIISWGEECAMKGKYGIYTKVSEYVNWIKNKTKLT = 9.8

Bench note: what kcat did FIXa-D104N/K106S/K247N/N249S/N260S (protein) chain 1: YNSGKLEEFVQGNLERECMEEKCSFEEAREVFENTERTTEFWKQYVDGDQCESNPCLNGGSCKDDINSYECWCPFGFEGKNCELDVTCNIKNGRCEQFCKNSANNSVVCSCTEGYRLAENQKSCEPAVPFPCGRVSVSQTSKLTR chain 2: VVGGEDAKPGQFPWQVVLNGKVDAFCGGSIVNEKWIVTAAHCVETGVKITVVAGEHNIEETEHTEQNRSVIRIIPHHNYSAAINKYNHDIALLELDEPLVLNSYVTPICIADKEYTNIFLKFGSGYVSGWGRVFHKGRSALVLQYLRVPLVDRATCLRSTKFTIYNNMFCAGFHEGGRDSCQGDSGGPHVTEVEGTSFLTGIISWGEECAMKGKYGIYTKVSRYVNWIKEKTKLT show?
0.6

What value of measured kcat is listed for FIXa-R318Y/R338E/T412A (protein) chain 1: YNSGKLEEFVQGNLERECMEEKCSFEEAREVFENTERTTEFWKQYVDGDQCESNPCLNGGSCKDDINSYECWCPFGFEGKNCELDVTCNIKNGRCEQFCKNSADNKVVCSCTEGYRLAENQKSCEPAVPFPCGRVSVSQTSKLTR chain 2: VVGGEDAKPGQFPWQVVLNGKVDAFCGGSIVNEKWIVTAAHCVETGVKITVVAGEHNIEETEHTEQKRNVIRIIPHHNYNAAINKYNHDIALLELDEPLVLNSYVTPICIADKEYTNIFLKFGSGYVSGWGRVFHKGYSALVLQYLRVPLVDRATCLESTKFTIYNNMFCAGFHEGGRDSCQGDSGGPHVTEVEGTSFLTGIISWGEECAMKGKYGIYTKVSRYVNWIKEKAKLT ?
7

Quick check: kcat of FIXa-K247N/N249S/R318Y/R338E/T343R/R403E (protein) chain 1: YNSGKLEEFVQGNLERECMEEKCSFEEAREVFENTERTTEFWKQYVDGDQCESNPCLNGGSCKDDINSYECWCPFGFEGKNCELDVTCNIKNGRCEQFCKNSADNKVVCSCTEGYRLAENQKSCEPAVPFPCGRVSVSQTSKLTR chain 2: VVGGEDAKPGQFPWQVVLNGKVDAFCGGSIVNEKWIVTAAHCVETGVKITVVAGEHNIEETEHTEQNRSVIRIIPHHNYNAAINKYNHDIALLELDEPLVLNSYVTPICIADKEYTNIFLKFGSGYVSGWGRVFHKGYSALVLQYLRVPLVDRATCLESTKFRIYNNMFCAGFHEGGRDSCQGDSGGPHVTEVEGTSFLTGIISWGEECAMKGKYGIYTKVSEYVNWIKEKTKLT ?
9.2
